So I've got a bunch of compounds here, and I need their Kd values.
testSystem: GTP-binding nuclear protein Ran (Homo sapiens, UniProt P62826); note: in the data inactive means no Kd found up to 30 µM
Activity calls are given as the source filed them.

Example compounds with recorded Kd:
Cc1cc2c(F)c(Oc3ncnn4cc(OC[C@@H](C)OC(=O)[C@H](C)N)c(C)c34)ccc2[nH]1 [BRIVANIB ALANINATE] = > 30 µM (inactive)
Cc1ccc(S(=O)(=O)Nc2nc3ccccc3nc2Nc2ccc3nsnc3c2)cc1 = > 30 µM (inactive)
COc1cc2nccc(Oc3ccc(NC(=O)NC4CC4)c(Cl)c3)c2cc1C(N)=O [LENVATINIB] = > 30 µM (inactive)

Please look at the items below and tell me Kd for each one, in order.
1. Cn1cc(-c2ccc3nnc(C(F)(F)c4ccc5ncccc5c4)n3n2)cn1 [JNJ-38877605]
2. Cc1cn(-c2cc(NC(=O)c3ccc(C)c(Nc4nccc(-c5cccnc5)n4)c3)cc(C(F)(F)F)c2)cn1 [NILOTINIB]
3. COc1ccc(-c2ccc3c(N4CCOC[C@@H]4C)nc(N4CCOC[C@@H]4C)nc3n2)cc1CO [AZD-8055]
4. COc1cc(N2CCC(N3CCN(C)CC3)CC2)ccc1Nc1ncnc(Nc2ccccc2S(=O)(=O)C(C)C)n1 [ASP-3026]
5. Cc1cc(Nc2cc(N3CCN(C)CC3)nc(/C=C/c3ccccc3)n2)n[nH]1 [ENMD-2076]

1: > 30 µM (inactive); 2: > 30 µM (inactive); 3: > 30 µM (inactive); 4: > 30 µM (inactive); 5: > 30 µM (inactive)

* * *

testSystem: Calcium/calmodulin-dependent protein kinase type II subunit delta (Homo sapiens); note: in the data inactive means no Kd found up to 30 µM
Sequence (Q13557 whole entry): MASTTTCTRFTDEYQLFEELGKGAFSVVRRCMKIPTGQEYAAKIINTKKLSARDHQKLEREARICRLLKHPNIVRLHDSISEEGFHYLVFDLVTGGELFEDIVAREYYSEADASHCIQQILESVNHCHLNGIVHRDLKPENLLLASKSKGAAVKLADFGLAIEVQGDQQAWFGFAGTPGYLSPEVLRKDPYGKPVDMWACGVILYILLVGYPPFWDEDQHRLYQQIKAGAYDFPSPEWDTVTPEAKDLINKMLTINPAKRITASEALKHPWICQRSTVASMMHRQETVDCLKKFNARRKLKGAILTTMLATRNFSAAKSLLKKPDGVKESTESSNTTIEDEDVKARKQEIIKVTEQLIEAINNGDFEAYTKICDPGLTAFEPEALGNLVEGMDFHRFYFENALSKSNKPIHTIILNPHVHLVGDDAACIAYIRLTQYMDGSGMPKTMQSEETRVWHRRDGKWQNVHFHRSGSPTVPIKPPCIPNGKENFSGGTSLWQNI
Activity calls are given as the source filed them.
Field 'call' accepts True for active, False for inactive

CN1N=C(N)c2cn([C@@H]3O[C@H](COP(=O)(O)O)[C@@H](O)[C@H]3O)c3ncnc1c23 [TRICIRIBINE PHOSPHATE] = False

What did this assay record as the result for COc1cc(CCc2cc(NC(=O)c3ccc(N4C[C@@H](C)N[C@@H](C)C4)cc3)n[nH]2)cc(OC)c1 [AZD-4547] ?
False

What did this assay record as the result for Cc1cc([C@@H](C)Nc2ccccc2C(=O)O)c2nc(N3CCOCC3)cc(=O)n2c1 [AZD-6482] ?
False

What did this assay record as the result for CCc1cnn2c(NCc3ccc[n+]([O-])c3)cc(N3CCCC[C@H]3CCO)nc12 [DINACICLIB] ?
False

* * *

testSystem: AP2-associated protein kinase 1 (Homo sapiens); note: in the data inactive means no Kd found up to 30 µM
Sequence (Q2M2I8 whole entry): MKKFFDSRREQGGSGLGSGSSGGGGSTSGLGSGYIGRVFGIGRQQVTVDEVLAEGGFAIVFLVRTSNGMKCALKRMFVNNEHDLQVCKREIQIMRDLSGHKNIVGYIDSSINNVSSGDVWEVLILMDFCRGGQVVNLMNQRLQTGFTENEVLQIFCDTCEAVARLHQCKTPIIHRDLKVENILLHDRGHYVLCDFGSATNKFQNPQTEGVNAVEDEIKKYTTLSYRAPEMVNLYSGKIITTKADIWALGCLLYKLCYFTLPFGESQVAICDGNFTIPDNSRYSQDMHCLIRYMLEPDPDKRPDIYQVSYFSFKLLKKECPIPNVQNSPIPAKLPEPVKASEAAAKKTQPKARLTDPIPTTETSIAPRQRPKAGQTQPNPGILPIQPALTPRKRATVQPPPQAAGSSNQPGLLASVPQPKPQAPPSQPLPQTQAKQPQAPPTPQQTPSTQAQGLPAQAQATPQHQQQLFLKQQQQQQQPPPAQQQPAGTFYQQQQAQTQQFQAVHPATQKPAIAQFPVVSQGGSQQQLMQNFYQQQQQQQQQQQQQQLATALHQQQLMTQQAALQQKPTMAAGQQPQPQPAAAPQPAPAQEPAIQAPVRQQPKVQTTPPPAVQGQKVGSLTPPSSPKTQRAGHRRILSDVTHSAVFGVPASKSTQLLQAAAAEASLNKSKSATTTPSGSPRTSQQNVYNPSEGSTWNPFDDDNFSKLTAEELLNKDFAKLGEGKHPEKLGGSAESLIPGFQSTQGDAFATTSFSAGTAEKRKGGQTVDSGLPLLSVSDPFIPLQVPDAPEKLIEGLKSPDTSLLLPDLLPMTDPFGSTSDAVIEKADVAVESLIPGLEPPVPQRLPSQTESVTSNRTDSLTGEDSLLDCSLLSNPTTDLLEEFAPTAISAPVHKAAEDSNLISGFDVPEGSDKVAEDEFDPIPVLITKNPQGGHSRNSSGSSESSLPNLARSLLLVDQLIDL
Active and inactive are the calls of the source.
Field 'call' accepts 1 (active), 0 (inactive)

Take a look at these entries with their results.
Cc1c(F)cc(C(=O)NC2CC2)cc1-c1ccc(C(=O)NCC(C)(C)C)cn1 [LOSMAPIMOD] = 0
COc1ccc(-c2ccc3c(N4CCOC[C@@H]4C)nc(N4CCOC[C@@H]4C)nc3n2)cc1CO [AZD-8055] = 0
Cn1ncc(Cl)c1-c1cc(C(=O)N[C@H](CN)Cc2cccc(F)c2)sc1Cl [AFURESERTIB] = 0

// next entry
What did this assay record as the result for COc1cc(OC)c(/C=C/S(=O)(=O)Cc2ccc(OC)c(NCC(=O)O)c2)c(OC)c1 [RIGOSERTIB] ?
0

* * *

Reported Kd values, Mitogen-activated protein kinase kinase kinase 6 (Homo sapiens, UniProt O95382).
Active and inactive are the calls of the source.

Example molecules with recorded Kd:
CNC(=O)c1ccc(C)c(-n2c(C)cc(OCc3ccc(F)cc3F)c(Br)c2=O)c1 = > 30 µM (inactive)
O=C(c1ccc(F)c(F)c1Nc1ccc(I)cc1F)N1CC(O)([C@@H]2CCCCN2)C1 = > 30 µM (inactive)

Provide Kd value for the following molecule: `Cn1cc(-c2ccc3nnc(C(F)(F)c4ccc5ncccc5c4)n3n2)cn1`
> 30 µM (inactive)
